Origin of the recorded values: paper PMC9911399

# target.or.system: T1, RBFOX1 RRM RbFoxmut (Fox-RRM*) (Homo sapiens, UniProt Q9NWB1 109-208, R118D;E147R;N151S;E152T)
# T1 sequence: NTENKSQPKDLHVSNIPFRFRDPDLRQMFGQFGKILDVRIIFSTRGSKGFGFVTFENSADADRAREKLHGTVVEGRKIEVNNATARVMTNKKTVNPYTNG
# assay.procedure: EMSA; HiTS-Eq, 1 nM pool, 10 min; buffer printed only for the single-RNA assays: 10 mM Tris pH 7.5, 150 mM NaCl, 3.4 mM EDTA, 0.001% NP-40, 30 C
# recorded.conditions: tags: His6 N-terminal (pET28a); label: 5' 32P
In all, about 16,000 sequences were measured (“ka relative to ugcaugu”: median about 0.096, highest 2% from about 0.35 on). This excerpt belongs to a sample that is enriched for the highest values.
measurement.name: binding signal

Entry under test: CAGGGCG (DNA:RNA) RNA: GGGAGACCGGAAUUCAGAUUGUCCCAGGGCGUUAAAUCCCGUCGUAGCCACCA DNA 1: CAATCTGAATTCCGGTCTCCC DNA 2: TGGTGGCTACGACGGGATT . Its binding signal was 0.123 KA relative to UGCAUGU

Entry under test: AGCAUAA (DNA:RNA) RNA: GGGAGACCGGAAUUCAGAUUGUCCAGCAUAAUUAAAUCCCGUCGUAGCCACCA DNA 1: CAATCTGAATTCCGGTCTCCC DNA 2: TGGTGGCTACGACGGGATT . Its binding signal was 0.0973 KA relative to UGCAUGU

Entry under test: CCGCCGG (DNA:RNA) RNA: GGGAGACCGGAAUUCAGAUUGUCCCCGCCGGUUAAAUCCCGUCGUAGCCACCA DNA 1: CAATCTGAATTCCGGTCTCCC DNA 2: TGGTGGCTACGACGGGATT . Its binding signal was 0.0808 KA relative to UGCAUGU

Entry under test: CAGCAUC (DNA:RNA) RNA: GGGAGACCGGAAUUCAGAUUGUCCCAGCAUCUUAAAUCCCGUCGUAGCCACCA DNA 1: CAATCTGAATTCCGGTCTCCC DNA 2: TGGTGGCTACGACGGGATT . Its binding signal was 0.307 KA relative to UGCAUGU

Entry under test: AGCAUGC (DNA:RNA) RNA: GGGAGACCGGAAUUCAGAUUGUCCAGCAUGCUUAAAUCCCGUCGUAGCCACCA DNA 1: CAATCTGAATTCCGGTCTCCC DNA 2: TGGTGGCTACGACGGGATT . Its binding signal was 0.495 KA relative to UGCAUGU

Entry under test: CAGCAUG (DNA:RNA) RNA: GGGAGACCGGAAUUCAGAUUGUCCCAGCAUGUUAAAUCCCGUCGUAGCCACCA DNA 1: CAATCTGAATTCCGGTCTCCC DNA 2: TGGTGGCTACGACGGGATT . Its binding signal was 0.965 KA relative to UGCAUGU

Entry under test: ACCAUGC (DNA:RNA) RNA: GGGAGACCGGAAUUCAGAUUGUCCACCAUGCUUAAAUCCCGUCGUAGCCACCA DNA 1: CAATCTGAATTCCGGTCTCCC DNA 2: TGGTGGCTACGACGGGATT . Its binding signal was 0.0949 KA relative to UGCAUGU

Entry under test: AGCAUGA (DNA:RNA) RNA: GGGAGACCGGAAUUCAGAUUGUCCAGCAUGAUUAAAUCCCGUCGUAGCCACCA DNA 1: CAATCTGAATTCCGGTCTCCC DNA 2: TGGTGGCTACGACGGGATT . Its binding signal was 0.524 KA relative to UGCAUGU

Entry under test: AUGCUGC (DNA:RNA) RNA: GGGAGACCGGAAUUCAGAUUGUCCAUGCUGCUUAAAUCCCGUCGUAGCCACCA DNA 1: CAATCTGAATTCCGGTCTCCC DNA 2: TGGTGGCTACGACGGGATT . Its binding signal was 0.126 KA relative to UGCAUGU
